Target: T1, His6-HD-PTP_(Bro1) (1-361) (human, UniProt Q9H3S7 1-361)
T1 construct: HD-PTP/PTPN23, Bro1 domain, residues 1-361; Immobilised by its His6 tag on the HTE chip; also called HD-PTP Bro1 domain; source: E. coli BL21 (DE3), purified (Nickel-beads, MonoQ, Superdex 200); not shown: His6, N-terminal, kept
T1 sequence (looked up): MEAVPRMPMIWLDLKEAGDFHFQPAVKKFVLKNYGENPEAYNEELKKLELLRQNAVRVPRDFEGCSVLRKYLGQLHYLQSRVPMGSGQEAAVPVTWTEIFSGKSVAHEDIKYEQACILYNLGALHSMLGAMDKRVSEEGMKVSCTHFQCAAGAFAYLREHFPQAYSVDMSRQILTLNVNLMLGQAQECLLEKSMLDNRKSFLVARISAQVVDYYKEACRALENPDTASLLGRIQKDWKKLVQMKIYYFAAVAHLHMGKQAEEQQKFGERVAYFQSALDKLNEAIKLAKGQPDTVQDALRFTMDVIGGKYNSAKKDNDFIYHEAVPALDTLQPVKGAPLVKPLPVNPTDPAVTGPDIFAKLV
Assay: SPR; ProteOn XPR36; His6-tagged proteins immobilised on a HTE chip (5000-8000 RU); synthetic peptides as analytes, five concentrations; 10 mM HEPES pH 7.4, 150 mM NaCl, 0.05% Tween 20; 25°C; equilibrium binding fit
Details: both partners purified
METRIC NAME: Kd (µM)
# number only, unit µM dropped from output

Examples with their reported Kd follow.
(Q) Fill in the blank: the reported Kd of MENYFQAEAYNLDKVLDEFEQN (peptide, UniProt O95405 1-22, looked up, human SARA, N-terminal 22 residues; also called SARA peptide; equivalent region of SARA; source: synthetic peptide (Generon Ltd, UK)) [SARA 22-mer peptide (N-terminal 22 residues of SARA)] is ____.
(A) 11.3

(Q) Fill in the blank: the reported Kd of PKVDEDEEALKQLAEWVS [CHMP4A C-terminal peptide] is ____.
(A) 132

(Q) Fill in the blank: the reported Kd of KKKEEEDDDMKELENWAGSM [CHMP4B C-terminal peptide] is ____.
(A) 85

# next binder below
(Q) Fill in the blank: the reported Kd of MDSYFKAAVSDLDKLLDDFEQN (peptide, UniProt Q7Z3T8 1-22, looked up, human endofin, first 22 residues; begins 1-MDSYF-5; also called endofin peptide; endofin_(1-22) (WT); source: synthetic peptide (Generon Ltd, UK)) [endofin 22-mer peptide (first 22 residues of endofin)] is ____.
(A) 3.1
